Target: ALDH1A2 (Homo sapiens)
Sequence (O94788 1-518): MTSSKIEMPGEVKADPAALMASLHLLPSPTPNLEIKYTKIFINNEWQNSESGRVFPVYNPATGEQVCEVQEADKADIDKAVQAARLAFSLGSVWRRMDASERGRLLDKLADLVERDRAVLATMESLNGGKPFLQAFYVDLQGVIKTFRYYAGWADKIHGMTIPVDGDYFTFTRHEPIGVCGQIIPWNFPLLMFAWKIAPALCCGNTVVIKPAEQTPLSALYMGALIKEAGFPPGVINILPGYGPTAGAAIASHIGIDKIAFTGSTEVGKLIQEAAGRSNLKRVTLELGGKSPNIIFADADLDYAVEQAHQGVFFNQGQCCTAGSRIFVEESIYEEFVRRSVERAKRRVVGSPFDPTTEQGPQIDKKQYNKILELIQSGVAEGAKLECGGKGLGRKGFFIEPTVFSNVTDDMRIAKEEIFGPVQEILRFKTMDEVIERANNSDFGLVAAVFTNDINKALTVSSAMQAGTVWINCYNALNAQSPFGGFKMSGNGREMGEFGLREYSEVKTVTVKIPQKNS
property.measured: IC50 (µM)
Give your result in µM as a bare value.

Prompt: Which value of IC50 has been reported for "CCN(CC)c1ccc(C=O)cc1" in the records?
Completion: 1.2

Origin of measurements: paper PMC4414715
